system: human colorectal cancer cell line COLO-320DM; assay: Cell proliferation inhibitory activity test (Celltiter-Glo); format: cell-based; conditions: COLO-320DM cells, 96 hours
# GI50 values compiled below

# compound, GI50
records = [
    ("CCOc1ccc(-c2n[nH]cc2C2NC(=O)c3ccccc3N2C)cc1 (stereo not drawn)", "1 to 10 µM"),
    ("CN1c2ccccc2C(=O)NC1c1c[nH]nc1-c1ccc(I)cc1 (stereo not drawn)", "≥ 10 µM"),
    ("CN1CCN(c2ccc(-c3ccc(-c4n[nH]cc4C4NC(=O)c5ccccc5N4C)cc3F)cc2)CC1 (stereo not drawn)", "1 to 10 µM"),
    ("CN1c2ccccc2C(=O)NC1c1c[nH]nc1-c1cccc(-c2ccc(N3CCOCC3)cc2)c1 (stereo not drawn)", "1 to 10 µM"),
    ("Cc1cccc2c1NC(c1cn[nH]c1-c1ccc(-c3ccc(N4CCN(C)CC4)cc3)cc1)NC2=O (stereo not drawn)", "1 to 10 µM"),
    ("CN1c2ccccc2C(=O)NC1c1c[nH]nc1-c1ccc(OCC(F)(F)F)cc1 (stereo not drawn)", "≥ 10 µM"),
    ("CCN1c2ccccc2C(=O)NC1c1c[nH]nc1-c1ccc(OC)cc1 (stereo not drawn)", "1 to 10 µM"),
    ("CN1c2ccccc2C(=O)NC1c1c[nH]nc1-c1cccc(NC(=O)Nc2ccccc2)c1 (stereo not drawn)", "≥ 10 µM"),
    ("COc1cccc(-c2n[nH]cc2C2NC(=O)c3ccccc3N2C)c1 (stereo not drawn)", "≥ 10 µM"),
    ("COc1c(F)cc(-c2n[nH]cc2C2NC(=O)c3ccccc3N2C)cc1F (stereo not drawn)", "≥ 10 µM"),
    ("COc1ccc(-c2n[nH]nc2C2NC(=O)c3cccc(O)c3N2)cc1 (stereo not drawn)", "≥ 10 µM"),
    ("CN1c2ccccc2C(=O)NC1c1c[nH]nc1-c1ccc(-c2cccc(O)c2)cc1 (stereo not drawn)", "≥ 10 µM"),
    ("CN1c2ccccc2C(=O)NC1c1c[nH]nc1-c1ccc(N)cc1 (stereo not drawn)", "≥ 10 µM"),
    ("COc1ccc(-c2n[nH]cc2C2NC(=O)c3ccccc3N2)cc1 (stereo not drawn)", "≥ 10 µM"),
    ("COc1ccc(-c2c[nH]nc2C2NC(=O)c3ccccc3N2C)cc1 (stereo not drawn)", "1 to 10 µM"),
    ("CN1c2ccccc2C(=O)NC1c1c[nH]nc1-c1ccc(NC(=O)c2ccccc2)cc1 (stereo not drawn)", "≥ 10 µM"),
    ("CN1c2ccccc2C(=O)NC1c1c[nH]nc1-c1ccc(C#N)cc1 (stereo not drawn)", "≥ 10 µM"),
    ("CCOc1ccc(-c2n[nH]nc2[C@H]2NC(=O)c3cccc(C)c3N2)cc1", "< 1 µM"),
]

* * *

pIC50: −log10 of the molar value.
Test system tankyrase 1 (TNKS1) (Homo sapiens, UniProt O95271), pIC50 listed for each of the compounds.

# compound, subject_of_test, pIC50
measured = [
    ("CCOc1ccc(-c2n[nH]nc2C2NC(=O)c3cccc4c3N2CC4)cc1 (stereo not drawn)", "tankyrase 1 (TNKS1) (Homo sapiens, UniProt O95271)", "7.70 to 8.30"),
    ("COc1ccc(-c2c[nH]nc2C2NC(=O)c3cccc(C)c3N2)cc1 (stereo not drawn)", "tankyrase 1 (TNKS1) (Homo sapiens, UniProt O95271)", "> 8.30"),
    ("COc1ccc(-c2c[nH]nc2C2NC(=O)c3ccccc3N2)cc1 (stereo not drawn)", "tankyrase 1 (TNKS1) (Homo sapiens, UniProt O95271)", "7.70 to 8.30"),
    ("COc1ccc(-c2n[nH]nc2C2NC(=O)c3cccc(O)c3N2)cc1 (stereo not drawn)", "tankyrase 1 (TNKS1) (Homo sapiens, UniProt O95271)", "7.70 to 8.30"),
    ("CN1c2ccccc2C(=O)NC1c1c[nH]nc1-c1ccc(C#N)cc1 (stereo not drawn)", "tankyrase 1 (TNKS1) (Homo sapiens, UniProt O95271)", "7.70 to 8.30"),
    ("CN1CCN(c2ccc(-c3ccc(-c4n[nH]cc4C4NC(=O)c5ccccc5N4C)cc3)cc2)CC1 (stereo not drawn)", "tankyrase 1 (TNKS1) (Homo sapiens, UniProt O95271)", "7.30 to 7.70"),
    ("CN1CCN(c2ccc(-c3cccc(-c4n[nH]nc4C4NC(=O)c5ccccc5N4C)c3)cc2)CC1 (stereo not drawn)", "tankyrase 1 (TNKS1) (Homo sapiens, UniProt O95271)", "7.70 to 8.30"),
    ("COc1c(F)cc(-c2n[nH]cc2C2NC(=O)c3ccccc3N2C)cc1F (stereo not drawn)", "tankyrase 1 (TNKS1) (Homo sapiens, UniProt O95271)", "7.30 to 7.70"),
    ("CN1c2ccccc2C(=O)NC1c1c[nH]nc1-c1ccc(-c2cccc(O)c2)cc1 (stereo not drawn)", "tankyrase 1 (TNKS1) (Homo sapiens, UniProt O95271)", "7.70 to 8.30"),
]

All figures here come from patent US11566017B2.
